Recorded IC50 values for a group of molecules are listed next.
Molecular target: Activin receptor type-1 (Homo sapiens) (UniProt Q04771)
Sequence (Q04771 whole entry, looked up): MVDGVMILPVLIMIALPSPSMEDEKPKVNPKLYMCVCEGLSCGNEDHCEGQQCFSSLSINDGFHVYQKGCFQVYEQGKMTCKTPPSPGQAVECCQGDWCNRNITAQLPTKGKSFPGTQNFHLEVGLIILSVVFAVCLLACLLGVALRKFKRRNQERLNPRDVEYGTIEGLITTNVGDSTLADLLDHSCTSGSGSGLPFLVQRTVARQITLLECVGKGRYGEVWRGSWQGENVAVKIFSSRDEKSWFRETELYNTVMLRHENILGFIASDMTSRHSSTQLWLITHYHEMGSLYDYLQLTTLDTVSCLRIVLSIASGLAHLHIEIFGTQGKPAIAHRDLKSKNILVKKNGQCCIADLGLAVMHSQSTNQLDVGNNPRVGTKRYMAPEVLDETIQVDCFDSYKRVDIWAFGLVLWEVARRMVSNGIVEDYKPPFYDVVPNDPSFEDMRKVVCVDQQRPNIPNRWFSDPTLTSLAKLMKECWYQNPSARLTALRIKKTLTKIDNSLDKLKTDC
Experiment: ALK2 kinase inhibitors, SAR follow-up, biochemical, secondary in vitro (AID 652276)
Details: in vitro ALK2 kinase assay

# annotated cases, reported IC50 shown
COc1ccc(-c2cnc3c(-c4ccnc5ccccc45)cnn3c2)cc1 = 33 nM
COc1ccc(-c2cnc3c(-c4ccnc5ncccc45)cnn3c2)cc1 = 121 nM
c1cc(N2CCNCC2)ccc1-c1cnc2c(-c3cn[nH]c3)cnn2c1 = 43 nM
c1cc(N2CCOCC2)ccc1-c1cnc2c(-c3cn[nH]c3)cnn2c1 = 53 nM

Kindly note the recorded IC50 for COc1ccc(-c2cnc3c(-c4cn[nH]c4)cnn3c2)cc1 , which is 110 nM
